# System: Vero E6 infected with SARS-CoV-2
# PROTOCOL_DETAILS: inhibition of SARS-CoV-2 cytopathic effect; higher = more antiviral protection, active = above 15
# CONDITION: 10000 nM; 48 h
ENDPOINT: inhibition of SARS-CoV-2 cytopathic effect (%)
Note: unit % is implicit; provide only the numeric part.

| COMPOUND | TESTED_TARGET | READOUT_NUMBER |
| --- | --- | --- |
| COc1cc(C(=S)N2CCOCC2)ccc1O [vanitiolide] | Vero E6 infected with SARS-CoV-2 | -0.14 |
| N=C(N)NN=C1C=CC(=NNC(N)=S)C=C1 | Vero E6 infected with SARS-CoV-2 | -0.05 |
| O=C(/C=C/c1ccc(O)cc1)c1ccc(O)cc1O | Vero E6 infected with SARS-CoV-2 | 10.8 |
| CN(C)CCCSc1ccccc1NC(=O)/C=C/c1ccccc1 | Vero E6 infected with SARS-CoV-2 | -4.38 |

Problem: Name the reported inhibition of SARS-CoV-2 cytopathic effect value associated with the compound CCCCC1(COC(=O)CCC(=O)O)C(=O)N(c2ccccc2)N(c2ccccc2)C1=O
Result: 0.42

// data source = the supplement of paper PMC13380429
